Data origin, for the record: the supplement of paper PMC10127200

Tested on: 786-O
Assay: Euclidean distance of Cell Painting phenotypic profile (signed KS, 77 features) to DMSO centroid (dimensionless distance); 5 or 10 uM (library dependent); higher = stronger phenotypic change vs DMSO (phenoactivity)
Details: 48 h
Counter-ions that a name gives are not always drawn.
Task for the reader: assign each of the following molecules its reported Euclidean distance.
One number for each entry.

# example entries with known answers
N=C(N)N [Guanidine HCl]	0.653
CC/C(=C(/CC)c1ccc(O)cc1)c1ccc(O)cc1 [Diethylstilbestrol]	0.795

Provide the reported Euclidean distance of each entry below, same order.
1. O=C(O)COCCN1CCN([C@H](c2ccccc2)c2ccc(Cl)cc2)CC1 [Levocetirizine Dihydrochloride]
2. Clc1cccc(Cl)c1NC1=NCCN1 [Clonidine HCl]
3. CN1CCN(C2=Nc3ccccc3Oc3ccc(Cl)cc32)CC1 [Loxapine Succinate]

1: 0.875; 2: 1.05; 3: 0.937

* * *

Test system: 786-O
Assay: Euclidean distance of Cell Painting phenotypic profile (signed KS, 77 features) to DMSO centroid (dimensionless distance); 5 or 10 uM (library dependent); higher = stronger phenotypic change vs DMSO (phenoactivity)
Conditions: 48 h
Structures can show the parent of a compound that is named as a salt.
Answer each item with its documented Euclidean distance.
Answers are plain numbers.

Check out these entries, answers already filled in.
C[C@@H](Nc1cc(F)cc(F)c1)c1cc(C(=O)N(C)C)cc2c(=O)cc(N3CCOCC3)oc12	2.04
O=C(NCc1ccc(Oc2ccccc2)cc1)c1nc(-c2cc(Br)c(O)c(Br)c2)no1	0.904
Cc1cc(N2CCN([C@@H]3CN[C@H](C(=O)N4CCSC4)C3)CC2)n(-c2ccccc2)n1 [Teneligliptin hydrobromide]	1.1
CCN1CCN(Cc2ccc(Nc3ncc(F)c(-c4cc(F)c5nc(C)n(C(C)C)c5c4)n3)nc2)CC1 [Abemaciclib]	4.11
Oc1c(Cl)cc(Cl)c(Cl)c1Cc1c(O)c(Cl)cc(Cl)c1Cl [Hexachlorophene]	2.16
Cc1cccc(Nc2nc(-c3ccncc3)cs2)c1	3.35

Below are 3 compounds. Give each one its Euclidean distance.
1. COC(=O)Nc1nc2cc(Sc3ccccc3)ccc2[nH]1 [Fenbendazole]
2. N#C/C(=C(/N)Sc1ccc(N)cc1)c1ccccc1C(F)(F)F
3. CC(C)NNC(=O)c1ccncc1 [Iproniazid]

[2.61, 0.949, 1.02]

Provide Euclidean distance values for the following items, in order.
1. O=c1[nH]cnc2c1ncn2[C@@H]1O[C@H](CO)[C@@H](O)[C@H]1O [Inosine]
2. CCCCC1OC(=O)c2ccccc21 (stereo unspecified) [3-n-Butylphathlide]

[1.3, 1.36]

* * *

System: OVCAR4
Assay: Euclidean distance of Cell Painting phenotypic profile (signed KS, 77 features) to DMSO centroid (dimensionless distance); 5 or 10 uM (library dependent); higher = stronger phenotypic change vs DMSO (phenoactivity)
Settings: 48 h
Exercise: state measured Euclidean distance for each of the compounds provided.

NCCS(=O)(=O)O	1.35

// each compound listed below needs its Euclidean distance
1. NCC[C@H](O)C(=O)N[C@@H]1C[C@H](N)[C@@H](O[C@H]2O[C@H](CN)[C@@H](O)[C@H](O)[C@H]2O)[C@H](O)[C@H]1O[C@H]1O[C@H](CO)[C@@H](O)[C@H](N)[C@H]1O [Amikacin disulfate]
2. CO/N=C(\C(=O)N[C@@H]1C(=O)N2C(C(=O)O)=C(COC(N)=O)CS[C@H]12)c1ccco1 [Cefuroxime sodium]
3. CC(C)=CCC/C(C)=C/CC/C(C)=C/CCC(=O)OC/C=C(\C)CCC=C(C)C [Gefarnate]

[0.989, 1.04, 0.606]

* * *

Please respond with reported Euclidean distance for every item in the list.
Tested on: A549
Experiment: Euclidean distance of Cell Painting phenotypic profile (signed KS, 77 features) to DMSO centroid (dimensionless distance); 5 or 10 uM (library dependent); higher = stronger phenotypic change vs DMSO (phenoactivity)
Details: 48 h
Structures can show the parent of a compound that is named as a salt.

O=C(Nc1cnn2ccc(N3CCC[C@@H]3c3cc(F)ccc3F)nc12)N1CC[C@H](O)C1 [Larotrectinib (LOXO-101) sulfate]	0.899
Cc1cccc(-c2[nH]c(CNc3ccccc3F)nc2-c2ccc3ncnn3c2)n1	1.61
CCC[C@H](N[C@@H](C)C(=O)N1[C@H](C(=O)O)C[C@@H]2CCCC[C@@H]21)C(=O)OCC	0.943

Give Euclidean distance for all compounds that follow.
1. CC(=O)OCC(=O)[C@H]1CC[C@H]2[C@@H]3CCC4=CC(=O)CC[C@]4(C)[C@H]3CC[C@]12C [Deoxycorticosterone acetate]
2. COc1cc2c(cc1OC)-c1cc3ccc(OC)c(OC)c3c[n+]1CC2
3. CC(=O)O[C@@]12CO[C@@H]1C[C@H](O)[C@@]1(C)C(=O)[C@H](O)C3=C(C)[C@@H](OC(=O)[C@H](O)[C@@H](NC(=O)OC(C)(C)C)c4ccccc4)C[C@@](O)([C@@H](OC(=O)c4ccccc4)[C@H]21)C3(C)C [Docetaxel Trihydrate]
4. CC(C)Nc1cc(-c2c[nH]c(C(=O)N[C@H](CO)c3cccc(Cl)c3)c2)c(Cl)cn1
5. CCC1(c2c[nH]cn2)Cc2ccccc2C1

[0.852, 0.996, 3.08, 4.11, 0.642]

Here are 4 compounds. What values of Euclidean distance were reported for them?
1. CN1[C@@H]2CC[C@H]1C[C@@H](OC(c1ccccc1)c1ccccc1)C2 [Benztropine mesylate]
2. NCCCC(N)(C(=O)O)C(F)F (stereo not drawn) [Eflornithine hydrochloride hydrate]
3. CCOC(=O)N[C@@H]1CC[C@@H]2[C@@H](C1)C[C@H]1C(=O)O[C@H](C)[C@H]1[C@H]2/C=C/c1ccc(-c2cccc(F)c2)cn1
4. CC(C)(CO)[C@@H](O)C(=O)NCCC(=O)O

1: 0.973; 2: 1.26; 3: 1.29; 4: 0.696

Dear colleague, could you send me Euclidean distance for each of the items below? Thanks.
1. COc1ccc2ccc(=O)oc2c1CC=C(C)C
2. C[C@@H]1COCCN1c1cc(C2([S@](C)(=N)=O)CC2)nc(-c2cc[nH]c3nccc2-3)n1
3. CCOC(=O)[C@H](CCc1ccccc1)N[C@@H](C)C(=O)N1[C@H](C(=O)O)C[C@H]2CCCC[C@@H]21
4. COc1ccc(CN(CCN(C)C)c2ncccn2)cc1
5. CC(=O)[C@H]1CC[C@H]2[C@@H]3C=CC4=CC(=O)CC[C@@]4(C)[C@@H]3CC[C@]12C
6. CCCCCCCCCCCCCCCCOc1nc2ccc(C)cc2c(=O)o1
7. CC1=C(C(=O)Nc2cc3cn[nH]c3cc2F)C(c2ccc(C(F)(F)F)cc2)CC(=O)N1 (stereo not drawn)
8. COc1cc2nccc(Oc3ccc(NC(=O)NC4CC4)c(Cl)c3)c2cc1C(N)=O [lenvatinib Mesylate]

1: 0.749; 2: 2.73; 3: 0.478; 4: 1.66; 5: 0.859; 6: 1.33; 7: 1.68; 8: 1.1

Take each entry in turn and give its Euclidean distance.
1. COc1cc(NS(=O)(=O)c2ccc(N)cc2)ncn1
2. COc1cc2c(cc1OC)C(=O)C(CC1CCN(Cc3ccccc3)CC1)C2 (stereo not drawn)
3. Cc1nc(-c2ccc(OCC(C)C)c(C#N)c2)sc1C(=O)O

1. 0.926
2. 1.25
3. 0.915

* * *

Test system: FB
Experiment: Euclidean distance of Cell Painting phenotypic profile (signed KS, 77 features) to DMSO centroid (dimensionless distance); 5 or 10 uM (library dependent); higher = stronger phenotypic change vs DMSO (phenoactivity)
Conditions: 48 h
Structures can show the parent of a compound that is named as a salt.
Record form. Attribute: Euclidean distance. Fill in for each entry.

For every item in the list below, what is its measured Euclidean distance?
1. C=CC(=O)Nc1cccc(Sc2nc(Nc3ccc(N4CCN(C)CC4)cc3)ncc2Cl)c1
2. COc1ccc2cc3[n+](cc2c1OC)CCc1cc2c(cc1-3)OCO2 [Berberine chloride]
3. O=C(O)/C=C/c1ccc(Cn2ccnc2)cc1 [Ozagrel HCl]
4. CNC(=O)c1c(C)oc2cc(Oc3ncnc4cc(OC)c(OC)cc34)ccc12

1: 3.82; 2: 2.07; 3: 0.899; 4: 2.06

* * *

Test system: 786-O
Experiment: Euclidean distance of Cell Painting phenotypic profile (signed KS, 77 features) to DMSO centroid (dimensionless distance); 5 or 10 uM (library dependent); higher = stronger phenotypic change vs DMSO (phenoactivity)
Settings: 48 h
REPORTED METRIC: Euclidean distance

Observe how each entry below is paired with its result.
Cc1ccc(S(=O)(=O)c2ccc([N+](=O)[O-])o2)cc1	6.48
C[C@]12CCC(=O)C=C1C=C[C@@H]1[C@@H]2CC[C@@]2(C)[C@H]1CC[C@@]21CCC(=O)O1	1.64
CCn1cc(C(=O)O)c(=O)c2cnc(N3CCCC3)nc21	1.37
O=C(O[C@@H]1C[C@@H]2C[C@H]3C[C@H](C1)N2CC3=O)c1c[nH]c2ccccc12	1.37
Cc1nc(=O)c2cc(CN(C)c3ccc(C(=O)N[C@@H](CCC(=O)O)C(=O)O)s3)ccc2[nH]1	1.96
COc1ccccc1N1CCN(CC(O)COc2cccc3ccccc23)CC1 (centres undefined)	1.4
NC(=O)c1cnc2[nH]ccc2c1N[C@@H]1[C@@H]2CC3C[C@H]1C[C@@](O)(C3)C2	2.3
C=CC(=O)N1CCC[C@@H](n2nc(-c3ccc(Oc4ccccc4)cc3)c3c(N)ncnc32)C1	1.76

Now turn to the next molecule.
Observed Euclidean distance on 786-O for Nc1cccc(-c2cc3c(Oc4cccc(O)c4)ncnc3[nH]2)c1 , please. 1.73
